system: Human immunodeficiency virus 1; assay: Antiviral activity against HIV1 3B infected in human CEM cells assessed as inhibition of virus-induced syncytium formation by microscopy; details: Human immunodeficiency virus 1, 3B, CCRF-CEM
property label: EC50 (µM)
Give the number; µM is assumed, so skip it.

Task: Look up and report measured EC50 for this entry: Nc1ncnc2c1ncn2[C@@H]1C[C@@]2(CO)CC[C@@H]1C2
Output: 100

----------
test system: CCRF-CEM; assay: Cytostatic activity against human CEM cells after 72 hrs by Coulter counting
property label: pIC50
On this scale, pIC50 is minus log10 of a concentration expressed in M (mol/L).

Task: Look up and report measured pIC50 for this entry: COC(=O)[C@H](C)NP(=O)(OC[C@]12CC[C@H](C1)[C@H](n1cnc3c(NC4CC4)ncnc31)C2)Oc1ccccc1 (relative stereo)
Output: 4.11

Task: Look up and report measured pIC50 for this entry: Nc1nc(NC2CC2)c2ncn([C@@H]3C[C@@]4(CO)CC[C@@H]3C4)c2n1 (relative stereo)
Output: 3.91

Task: Look up and report measured pIC50 for this entry: Nc1nc(Cl)c2ncn([C@@H]3C[C@@]4(CO)CC[C@@H]3C4)c2n1 (relative stereo)
Output: 4.06

Task: Look up and report measured pIC50 for this entry: Nc1nc(N)c2ncn([C@@H]3C[C@@]4(CO)CC[C@@H]3C4)c2n1 (relative stereo)
Output: 3.76

----------
tested on: HeLa; experiment: Cytostatic activity against human HeLa cells after 72 hrs by Coulter counting
property label: pIC50
On this scale, pIC50 is minus log10 of a concentration expressed in M (mol/L).

Task: Look up and report measured pIC50 for this entry: Nc1nc(N)c2ncn([C@@H]3C[C@@]4(CO)CC[C@@H]3C4)c2n1 (relative stereo)
Output: 3.72

Task: Look up and report measured pIC50 for this entry: Nc1ncnc2c1ncn2[C@@H]1C[C@@]2(CO)CC[C@@H]1C2
Output: 3.22

----------
test system: Influenza A virus; experiment: Antiviral activity against influenza A virus H1N1 infected in MDCK cells assessed as inhibition of virus-induced cytopathic effect
property label: pEC50
On this scale, pEC50 is minus log10 of a concentration expressed in M (mol/L).

Task: Look up and report measured pEC50 for this entry: Nc1ncnc2c1ncn2[C@@H]1C[C@@]2(CO)CC[C@@H]1C2
Output: 3.75

----------
assay: Cytotoxicity against african green monkey Vero cells; format: cell-based; details: chlorocebus sabaeus
property label: CC50

Task: Look up and report measured CC50 for this entry: OC[C@]12CC[C@H](C1)[C@H](n1cnc3c(Cl)ncnc31)C2 (relative stereo)
Output: > 359 µM

Task: Look up and report measured CC50 for this entry: Nc1nc(Cl)c2ncn([C@@H]3C[C@@]4(CO)CC[C@@H]3C4)c2n1 (relative stereo)
Output: > 359 µM

----------
tested on: HeLa; assay: Cytostatic activity against human HeLa cells after 72 hrs by Coulter counting
What pIC50 was measured for each of the following?
On this scale, pIC50 is minus log10 of a concentration expressed in M (mol/L).

Task: Provide pIC50, recorded with HeLa, of O=c1[nH]cc(F)c(=O)[nH]1 [FLUOROURACIL]
Output: 5.59

Task: Provide pIC50, recorded with HeLa, of Nc1nc(NC2CC2)c2ncn([C@@H]3C[C@@]4(CO)CC[C@@H]3C4)c2n1 (relative stereo)
Output: 4.00

Task: Provide pIC50, recorded with HeLa, of COC(=O)[C@H](C)NP(=O)(OC[C@]12CC[C@H](C1)[C@H](n1cnc3c(NC4CC4)ncnc31)C2)Oc1ccccc1 (relative stereo)
Output: 3.87

----------
assay: Cytotoxicity against cat CRFK cells; assay type: cell-based, Felis catus
property label: CC50

Task: Look up and report measured CC50 for this entry: Nc1ncnc2c1ncn2[C@@H]1C[C@@]2(CO)CC[C@@H]1C2
Output: > 386 µM
